B1: HDV Ribozyme (parent)
chain: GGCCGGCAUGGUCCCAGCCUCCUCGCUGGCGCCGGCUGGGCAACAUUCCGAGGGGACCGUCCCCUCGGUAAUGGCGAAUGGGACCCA

Variants of: B1
Assay: self-cleavage, relative activity (ratio to wild type); higher = more cleavage; co-transcriptional
ENDPOINT_LABEL: self-cleavage
// no unit, no text: just the number

Known self-cleavage results, listed for orientation:
   variant_id  reading
0   A43C U65G    0.453
1   C26A G55C    0.862

stdin: GET /values?readout=self-cleavage&item= A51C G53U
stdout: 0.69

stdin: Name the recorded self-cleavage for G76A A77U .
stdout: 0.76

stdin: # lookup: self-cleavage of G50A C84G
stdout: 0.853

stdin: Any idea what self-cleavage was measured for U37A C44A ?
stdout: 0.364

stdin: Any idea what self-cleavage was measured for G11A A70U ?
stdout: 0.246

stdin: # get_value(readout='self-cleavage', item= G1A C22G )
stdout: 0.0978

stdin: Query (variant): C33A C57A ; field requested: self-cleavage
stdout: 0.447

stdin: Fill in: self-cleavage of A8G G52A is ___
stdout: 0.719

stdin: Can you share its self-cleavage? I mean this variant: C32G C85U
stdout: 0.0692

stdin: Query: self-cleavage; subject: G31U G80C
stdout: 0.0449

stdin: What value of measured self-cleavage is listed for C30G C48G ?
stdout: 0.119

stdin: Entry U47C C66G : reported self-cleavage = ?
stdout: 1.17
